melting point values for the compounds below.

compound	melting point
CC(=O)N1CCC(CCCC(=O)c2ccc3c(c2)CCN(C(=O)C(F)(F)F)CC3)CC1	101 to 102 °C

I would be grateful if you could share the reported melting point for "O=C(CCc1ccccc1)C(Cc1ccccc1)C(=O)CCc1ccccc1" .
74 to 75 °C

I would be grateful if you could share the reported melting point for CC(=O)C1=CCC2C3CCC4=CC(=O)CCC4(C)C3(F)C(=O)CC12C (stereo not drawn) .
208 to 211 °C

I would be grateful if you could share the reported melting point for "CCc1nn(CCOP(=O)(O)O)c(CC)c1Oc1cc(C#N)cc(C#N)c1" .
198 to 199 °C

I would be grateful if you could share the reported melting point for "NC(=O)c1cccc(-c2noc(-c3ccccc3F)n2)c1" .
231 to 234 °C

I would be grateful if you could share the reported melting point for "CCC(CC)(OCc1oc(-c2ccc(Cl)cc2)nc1C)C(=O)O" .
157 °C

I would be grateful if you could share the reported melting point for "COC(=O)C=Cc1ccc(OCc2nc(-c3ccccc3)oc2C)c(F)c1" .
167 to 168 °C

I would be grateful if you could share the reported melting point for "CCCCSc1cc(C(=O)OCC)cc(S(N)(=O)=O)c1Cl" .
160 to 162 °C

I would be grateful if you could share the reported melting point for "Cc1ccc(Nc2ccccn2)c(C)c1[N+](=O)[O-]" .
178 to 179 °C

I would be grateful if you could share the reported melting point for "c1cncc(-c2cc(C3CC3)on2)c1" .
70 to 73 °C

I would be grateful if you could share the reported melting point for "Cc1[nH]cc2c(=O)n(-c3ccc(Cl)cc3)nc-2c1-c1cccc(-c2cccnc2)c1" .
312 to 318 °C

I would be grateful if you could share the reported melting point for "O=C1NCCc2ccc(OCCCCN3CCN(c4cccc5ccccc45)CC3)nc2N1" .
188 to 190 °C

I would be grateful if you could share the reported melting point for CC(C)NCC(O)c1cc(CO)cc(OCc2ccccc2)c1 (stereo not drawn) .
84 to 89 °C

I would be grateful if you could share the reported melting point for "CC(C)=CCc1cc(C=CC(=O)c2ccc(O)cc2O)ccc1O" .
167 °C

I would be grateful if you could share the reported melting point for O=C(Cn1c(-c2ccc(Cl)cc2)ncc(NC(=O)OCc2ccccc2)c1=O)NC(Cc1ccccc1)C(=O)C(F)(F)F (stereo not drawn) .
199 to 201 °C

I would be grateful if you could share the reported melting point for CCCCCCCCCCCCC1CC(=C(C#N)C#N)CCC1=C(C#N)C#N (stereo not drawn) .
97 °C

I would be grateful if you could share the reported melting point for "COC(=O)CCCc1cc2cc(Cl)ccc2n1S(=O)(=O)c1cccc(C(C)C)c1" .
94 to 97 °C

###

melting point values for the compounds below.

Consider the reported melting point for these compounds:
compound	result.type	result
CS(=O)c1ccc(C2=CC(=O)C(C)(C)O2)cc1 (centres undefined)	melting point	108 to 109 °C
COc1cc(CC2(Cc3ccnc(OC)c3)c3ccccc3-c3ncccc32)ccn1	melting point	138 to 140 °C
CCCCCC(Oc1ccc(C2=CCCCCCC2)cc1)C(=O)O (centres undefined)	melting point	57 to 60 °C
COC(=O)c1cc(N=Nc2ccc(S(=O)(=O)Cl)cc2)ccc1O	melting point	137 to 138 °C
O=C(O)CCCCCNC(=O)OCC1c2ccccc2-c2ccccc21	melting point	116 °C
CCOc1cc2c(cc1OCC)C(C(S)(C#N)c1ccc(Cl)cc1)=NCC2 (centres undefined)	melting point	157 to 160 °C
Cc1cc(-c2nc(-c3c(F)cccc3Cl)nn2C)ccc1-c1ccc(OC(F)(F)F)cc1	melting point	117 to 122 °C
CCOC(=O)C1Oc2ccc(Cl)c(Cl)c2O1 (centres undefined)	melting point	58 to 61 °C

Please look at the following compound next.
I would be grateful if you could share the reported melting point for "CC(C)N(C(=S)NC(=O)c1ccccc1)c1ccc2c(c1)OCO2" .
152 to 154 °C
